Kindly supply the reported inhibition at 1 µM values for the records listed here.
# target: human recombinant histamine H2 receptor (Homo sapiens)
# Construct: expressed in transfected cells; host or cells: CHO-K1 cells
# Sequence (P25021 whole entry): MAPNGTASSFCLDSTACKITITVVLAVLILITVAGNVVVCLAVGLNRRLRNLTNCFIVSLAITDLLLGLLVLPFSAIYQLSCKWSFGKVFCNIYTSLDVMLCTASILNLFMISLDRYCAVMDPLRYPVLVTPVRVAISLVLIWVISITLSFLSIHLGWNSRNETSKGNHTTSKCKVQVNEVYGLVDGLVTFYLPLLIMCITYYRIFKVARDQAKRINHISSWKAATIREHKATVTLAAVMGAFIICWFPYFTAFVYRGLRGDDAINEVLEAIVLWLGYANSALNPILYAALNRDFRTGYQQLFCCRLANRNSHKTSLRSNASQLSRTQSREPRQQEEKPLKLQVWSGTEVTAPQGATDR
# test-details: Histamine H2 radioligand binding ([125I]Aminopotentidine)
# experimental-parameters: compound at 1 μM; read-out: Histamine Binding (1 μM) H2, percent inhibition of specific binding
Numbers only, in %.

## Input State recorded inhibition at 1 µM with human recombinant histamine H2 receptor (Homo sapiens), entry COc1ccc(/C(C)=C/n2c3c(c4cc(Cl)ccc42)CCN(C)CC3)cc1 , no comment.
## Output 91

## Input State recorded inhibition at 1 µM with human recombinant histamine H2 receptor (Homo sapiens), entry Cc1ccc2c(c1)c1c(n2CC(=O)N2CCCCC2)CCN(C)CC1 , no comment.
## Output -5

## Input State recorded inhibition at 1 µM with human recombinant histamine H2 receptor (Homo sapiens), entry C/C(=C\n1c2c(c3cc(C)ccc31)CCN(C)CC2)c1ccc(Cl)cc1 , no comment.
## Output 101

## Input State recorded inhibition at 1 µM with human recombinant histamine H2 receptor (Homo sapiens), entry C/C(=C\n1c2c(c3cc(C)ccc31)CCN(C)CC2)c1ccc(F)c(F)c1 , no comment.
## Output 92

Let's switch to this compound now.
## Input State recorded inhibition at 1 µM with human recombinant histamine H2 receptor (Homo sapiens), entry C=C(Cn1c2c(c3cc(Cl)ccc31)CCN(C)CC2)c1ccc(Cl)cc1 , no comment.
## Output 104
